Catalogue of binders with associated Kd
# Tested on: T1, recombinant human CTLA-4 (human, UniProt P16410 36-161, limits assumed)
# T1 construct: also called CTLA4 antigen
# T1 sequence (looked up): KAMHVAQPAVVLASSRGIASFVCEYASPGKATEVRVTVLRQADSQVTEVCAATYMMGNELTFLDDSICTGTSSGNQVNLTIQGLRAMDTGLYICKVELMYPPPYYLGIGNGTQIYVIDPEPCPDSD
# Experiment notes: Octet (BLI), 1:1 binding model
Give your result in nM as a bare value.

Binder	Measured endpoint	Value unit	Readout value
GBD008-hS005-3-2 (antibody, V domains shown, Humanized heavy chain-only antibody (VHH-Fc), no light chain) VH: EVQLVESGGGLVQPGGSLRLSCAASGRTASSNAMAWFRQAPGKEREFVSAISATGGLTAYADSVKGRFTISRDNSKNTLYLQMNSLRAEDTAVYYCAVGRERWYLRHTENEYDYWGQGTLVTVSS	Kd	nM	0.53

Lab book: Kd of GBD008-S019 (antibody, V domains shown, Heavy chain-only antibody (VHH-Fc), no light chain; also called GBD008-5019) VH: QVQLVESGGGLVQPGGSLTLSCAASGFTFSSYTMAWYRQAPGKEREVVAGISRSGGTTNYGDSVKGRFTISRDNAKNTVYLQMNSLKPEDTAVYYCRAVSDYWGQGTQVTVSS noted as 0.165

Lab book: Kd of GBD008-hS004-5 (antibody, V domains shown, Humanized heavy chain-only antibody (VHH-Fc), no light chain) VH: EVQLVESGGGLVQPGGSLRLSCAASGRTFSSYDMGWFRQAPGKEREFVAAISWGGVNTYYADSVKGRFTISRDNAKNTLYLQMNSLRAEDTAVYYCARGSAPYSSSRSSAQETYAQWGQGTLVTVSS noted as 27.9

Lab book: Kd of GBD008-hS005-3 (antibody, V domains shown, Humanized heavy chain-only antibody (VHH-Fc), no light chain) VH: EVQLVESGGGLVQPGGSLRLSCAASGRTASSNAMAWVRQAPGKEREFVSAISATGGLTAYADSVKGRFTISRDNSKNTLYLQMNSLRAEDTAVYYCAVGRERWYLRHTENEYDYWGQGTLVTVSS noted as 0.524

From: patent EP4628505A1
